Molecular target: T1, human Gal10-His (human, UniProt Q05315 2-142, limits assumed)
T1 construct: also called hGal10-His; human Gal10-His tagged; not shown: His tag
T1 sequence: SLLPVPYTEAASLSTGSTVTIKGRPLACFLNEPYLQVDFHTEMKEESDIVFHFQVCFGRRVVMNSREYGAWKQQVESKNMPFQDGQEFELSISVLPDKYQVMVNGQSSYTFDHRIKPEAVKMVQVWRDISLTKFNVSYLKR
Test: SPR Biacore 3000, Fab periplasmic extract on Gal10-His-coated CM5

binder	koff / s⁻¹
g20F04 (Fab, periplasmic extract) (Fab, V domains shown, X3 library) VH: EVQLLESGGGLVQPGGSLRLSCAASGFTFRSYDMSWVRQAPGKGLEWVSAIKHQVITYYADSVKGRFTISRDNSKNTLYLQMNSLRAEDTAVYYCATTHGIGTLGFGSWGQGTLVTVSS VL: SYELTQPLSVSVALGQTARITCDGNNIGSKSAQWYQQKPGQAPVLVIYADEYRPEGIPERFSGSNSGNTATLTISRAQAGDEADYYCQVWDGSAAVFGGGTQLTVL	0.016
g21F11 (Fab, periplasmic extract) (Fab, V domains shown, X4 library; VH assembled by inference) VH: EVQLLESGGGLVQPGGSLRLSCAASGFTFRSYDMSWVRQAPGKGLEWVSAIHTPMTYYADSVKGRFTISRDNSKNTLYLQMNSLRAEDTAVYYCATTHGIGTLGFGSWGQGTLVTVSS VL: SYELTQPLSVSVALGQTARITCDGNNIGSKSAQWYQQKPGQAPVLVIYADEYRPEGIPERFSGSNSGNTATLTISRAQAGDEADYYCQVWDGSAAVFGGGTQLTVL	0.035
g21C06 (Fab, periplasmic extract) (Fab, V domains shown, X4 library; VH assembled by inference) VH: EVQLLESGGGLVQPGGSLRLSCAASGFTFRSYDMSWVRQAPGKGLEWVSAIKRPWTYYADSVKGRFTISRDNSKNTLYLQMNSLRAEDTAVYYCATTHGIGTLGFGSWGQGTLVTVSS VL: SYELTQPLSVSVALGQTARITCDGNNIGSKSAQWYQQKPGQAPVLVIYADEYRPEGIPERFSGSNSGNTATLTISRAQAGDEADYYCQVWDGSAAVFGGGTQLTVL	0.036
g22C03 (Fab, periplasmic extract) (Fab, V domains shown, X5 library; VH assembled by inference) VH: EVQLLESGGGLVQPGGSLRLSCAASGFTFRSYDMSWVRQAPGKGLEWVSAIKLGTFTYYADSVKGRFTISRDNSKNTLYLQMNSLRAEDTAVYYCATTHGIGTLGFGSWGQGTLVTVSS VL: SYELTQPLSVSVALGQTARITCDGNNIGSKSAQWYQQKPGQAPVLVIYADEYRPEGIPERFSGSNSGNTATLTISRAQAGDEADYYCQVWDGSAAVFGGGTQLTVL	0.02
g23G11 (Fab, periplasmic extract) (Fab, V domains shown, X6 library; VH assembled by inference) VH: EVQLLESGGGLVQPGGSLRLSCAASGFTFRSYDMSWVRQAPGKGLEWVSAIQKTIVPTYYADSVKGRFTISRDNSKNTLYLQMNSLRAEDTAVYYCATTHGIGTLGFGSWGQGTLVTVSS VL: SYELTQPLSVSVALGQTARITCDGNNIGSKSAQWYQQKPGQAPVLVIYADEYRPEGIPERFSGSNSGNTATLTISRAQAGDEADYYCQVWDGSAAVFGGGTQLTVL	0.018
